Target: Nuclear receptor subfamily 1 group I member 3 (Homo sapiens); further: assay procedure not described here
Sequence (Q14994 whole entry): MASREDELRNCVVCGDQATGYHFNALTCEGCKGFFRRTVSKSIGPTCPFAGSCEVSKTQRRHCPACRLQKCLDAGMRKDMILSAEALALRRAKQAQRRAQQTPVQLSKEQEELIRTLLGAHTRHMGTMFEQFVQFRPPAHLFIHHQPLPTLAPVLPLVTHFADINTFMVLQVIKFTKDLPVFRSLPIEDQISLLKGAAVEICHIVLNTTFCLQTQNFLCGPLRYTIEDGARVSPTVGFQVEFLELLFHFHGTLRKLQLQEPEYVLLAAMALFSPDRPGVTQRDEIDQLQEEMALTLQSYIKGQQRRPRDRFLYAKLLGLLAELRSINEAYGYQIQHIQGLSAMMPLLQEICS
Format: functional
Known AC50 of a selection of compounds
Measured Property: AC50

INSERT INTO assay_data (compound, target_or_test_system, measured_property, reported_result) VALUES
  ('CO[C@H]1/C=C/O[C@@]2(C)Oc3c(C)c(O)c4c(O)c(c(/C=N/N5CCN(C)CC5)c(O)c4c3C2=O)NC(=O)/C(C)=C\C=C\[C@H](C)[C@H](O)[C@@H](C)[C@@H](O)[C@@H](C)[C@H](OC(C)=O)[C@@H]1C [RIFAMPIN]', 'Nuclear receptor subfamily 1 group I member 3 (Homo sapiens)', 'AC50', '> 30 µM'),
  ('CC(C(=O)O)c1ccc2c(c1)[nH]c1ccc(Cl)cc12 (centres undefined) [CARPROFEN]', 'Nuclear receptor subfamily 1 group I member 3 (Homo sapiens)', 'AC50', '> 30 µM'),
  ('COc1ccccc1Oc1c(NS(=O)(=O)c2ccc(C(C)(C)C)cc2)nc(-c2ncccn2)nc1OCCO [BOSENTAN]', 'Nuclear receptor subfamily 1 group I member 3 (Homo sapiens)', 'AC50', '2.1 µM'),
  ('CCN(CC)CCNC(=O)c1c(C)[nH]c(/C=C2\C(=O)Nc3ccc(F)cc32)c1C [SUNITINIB]', 'Nuclear receptor subfamily 1 group I member 3 (Homo sapiens)', 'AC50', '> 30 µM');

====

Target: Amine oxidase [flavin-containing] A (Homo sapiens); further: assay procedure not described here
Sequence (P21397 whole entry): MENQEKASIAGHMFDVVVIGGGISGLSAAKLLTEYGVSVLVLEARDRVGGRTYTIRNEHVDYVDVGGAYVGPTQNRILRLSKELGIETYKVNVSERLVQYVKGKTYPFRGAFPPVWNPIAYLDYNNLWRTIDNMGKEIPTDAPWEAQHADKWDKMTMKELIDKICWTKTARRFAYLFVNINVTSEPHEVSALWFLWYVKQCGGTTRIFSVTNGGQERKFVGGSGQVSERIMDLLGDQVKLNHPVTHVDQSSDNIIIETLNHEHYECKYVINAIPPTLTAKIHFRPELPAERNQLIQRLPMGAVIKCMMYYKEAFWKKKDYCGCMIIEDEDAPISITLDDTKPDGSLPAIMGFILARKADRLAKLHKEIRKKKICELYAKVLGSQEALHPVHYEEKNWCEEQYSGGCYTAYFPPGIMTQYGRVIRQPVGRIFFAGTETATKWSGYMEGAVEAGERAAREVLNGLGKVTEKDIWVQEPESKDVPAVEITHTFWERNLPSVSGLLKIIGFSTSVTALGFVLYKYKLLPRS
Type: functional
Measured Property: AC50

INSERT INTO results (compound, target_or_test_system, reported_result) VALUES
  ('O=C(O)CCNC(=O)c1ccccc1', 'Amine oxidase [flavin-containing] A (Homo sapiens)', '> 30 µM'),
  ('CN1C(C(=O)Nc2ccccn2)=C(O)c2ccccc2S1(=O)=O', 'Amine oxidase [flavin-containing] A (Homo sapiens)', '> 30 µM'),
  ('CCN1CCN(Cc2ccc(Nc3ncc(F)c(-c4cc(F)c5nc(C)n(C(C)C)c5c4)n3)nc2)CC1', 'Amine oxidase [flavin-containing] A (Homo sapiens)', '> 30 µM'),
  ('C[C@@H](NCCCc1cccc(C(F)(F)F)c1)c1cccc2ccccc12', 'Amine oxidase [flavin-containing] A (Homo sapiens)', '> 30 µM'),
  ('CCC(=O)O[C@H]1CC[C@H]2[C@@H]3CCC4=CC(=O)CC[C@]4(C)[C@H]3CC[C@]12C [TESTOSTERONE PROPIONATE]', 'Amine oxidase [flavin-containing] A (Homo sapiens)', '> 10 µM'),
  ('CC(=O)[C@]1(O)Cc2c(O)c3c(c(O)c2[C@@H](O[C@H]2C[C@H](N)[C@H](O)[C@H](C)O2)C1)C(=O)c1ccccc1C3=O', 'Amine oxidase [flavin-containing] A (Homo sapiens)', '> 30 µM'),
  ('CN(C)CCCNc1c2ccccc2nc2cccc([N+](=O)[O-])c12', 'Amine oxidase [flavin-containing] A (Homo sapiens)', '19 µM'),
  ('COc1ccc(CC2c3cc(OC)c(OC)cc3CC[N+]2(C)CCC(=O)OCCCCCOC(=O)CC[N+]2(C)CCc3cc(OC)c(OC)cc3C2Cc2ccc(OC)c(OC)c2)cc1OC (configuration not stated)', 'Amine oxidase [flavin-containing] A (Homo sapiens)', '> 30 µM'),
  ('CC(C)NCC(O)c1ccc(O)c(O)c1 (configuration not stated)', 'Amine oxidase [flavin-containing] A (Homo sapiens)', '> 10 µM'),
  ('C[C@H](Cc1ccc(O)c(O)c1)[C@@H](C)Cc1ccc(O)c(O)c1', 'Amine oxidase [flavin-containing] A (Homo sapiens)', '> 30 µM'),
  ('Clc1ccc2c(N3CCN(CCCN4CCN(c5ccnc6cc(Cl)ccc56)CC4)CC3)ccnc2c1', 'Amine oxidase [flavin-containing] A (Homo sapiens)', '> 30 µM'),
  ('COCC1=C(C(=O)O)N2C(=O)[C@@H](NC(=O)/C(=N\OC)c3csc(N)n3)[C@H]2SC1', 'Amine oxidase [flavin-containing] A (Homo sapiens)', '> 30 µM'),
  ('COc1ccccc1OCCNCC(O)COc1cccc2[nH]c3ccccc3c12 (configuration not stated)', 'Amine oxidase [flavin-containing] A (Homo sapiens)', '> 10 µM'),
  ('CC(C(=O)O)c1ccc(-c2ccccc2)c(F)c1 (configuration not stated)', 'Amine oxidase [flavin-containing] A (Homo sapiens)', '> 10 µM'),
  ('CC(C)COCC(CN(Cc1ccccc1)c1ccccc1)N1CCCC1 (configuration not stated)', 'Amine oxidase [flavin-containing] A (Homo sapiens)', '> 30 µM'),
  ('C/C(=C\C(=O)OCCCCCCCCC(=O)O)C[C@@H]1OC[C@H](C[C@@H]2O[C@H]2[C@@H](C)[C@H](C)O)[C@@H](O)[C@H]1O', 'Amine oxidase [flavin-containing] A (Homo sapiens)', '> 10 µM'),
  ('CCCCC(=O)O[C@]1(C(=O)CO)[C@@H](C)C[C@H]2[C@@H]3CCC4=CC(=O)C=C[C@]4(C)[C@@]3(F)[C@@H](O)C[C@@]21C [BETAMETHASONE VALERATE]', 'Amine oxidase [flavin-containing] A (Homo sapiens)', '> 10 µM');
